system: HeLa; assay: Concentration of compound that decreased the percentage of formazan production in treated HRV-14 virus infected cells to that produced in uninfected cells; format: functional; conditions: Homo sapiens
Can you tell me CC50 for the items I'm about to list?

INSERT INTO results (compound, measurement_name, result) VALUES
  ('CO/N=C/C=C/[C@H](CCC(N)=O)NC(=O)[C@H](Cc1ccccc1)NC(=O)[C@H](CC(C)C)NC(=O)OCc1ccccc1', 'CC50', '> 320 µM');

For each listed entry, give its CC50.
1. CC(C)C[C@H](NC(=O)OCc1ccccc1)C(=O)N[C@@H](Cc1ccccc1)C(=O)N[C@H](/C=C/C(=O)OC1CCCC1)CCC(N)=O
2. CC(C)C[C@H](NC(=O)OCc1ccccc1)C(=O)N[C@@H](Cc1ccccc1)C(=O)N[C@H](/C=C/C(=O)N1CCc2ccc(S(C)(=O)=O)cc21)CCC(N)=O
3. CC(C)C[C@H](NC(=O)OCc1ccccc1)C(=O)N[C@@H](Cc1ccccc1)C(=O)N[C@H](/C=C/C(=O)c1ccc(C#N)cc1)CCC(N)=O

1. > 100 µM
2. > 320 µM
3. > 320 µM

Batch request: CC50 per item, same order as input.
1. CC(C)C[C@H](NC(=O)OCc1ccccc1)C(=O)N[C@@H](Cc1ccccc1)C(=O)N[C@H](/C=C/C(=O)N1CCc2ccccc21)CCC(N)=O
2. CC(C)C[C@H](NC(=O)OCc1ccccc1)C(=O)N[C@@H](Cc1ccccc1)C(=O)N[C@H](/C=C/C(=O)c1ccc([N+](=O)[O-])cc1)CCC(N)=O
3. CC(C)C[C@H](NC(=O)OCc1ccccc1)C(=O)N[C@@H](Cc1ccccc1)C(=O)N[C@H](/C=C/c1ccccn1)CCC(N)=O
4. COC(=O)N1CC/C(=C\[C@H](CCC(N)=O)NC(=O)[C@H](Cc2ccccc2)NC(=O)[C@H](CC(C)C)NC(=O)OCc2ccccc2)C1=O
5. COC(=O)/C=C/[C@H](CCC(N)=O)NC(=O)[C@H](Cc1ccccc1)NC(=O)[C@H](CC(C)C)NC(=O)OCc1ccccc1
6. CC(=O)/C=C/[C@H](CCC(N)=O)NC(=O)[C@H](Cc1ccccc1)NC(=O)[C@H](CC(C)C)NC(=O)OCc1ccccc1

1: > 320 µM; 2: 32 µM; 3: > 100 µM; 4: > 100 µM; 5: > 320 µM; 6: 60 µM

Provide each entry's CC50 from the list below.
1. CC(C)C[C@H](NC(=O)OCc1ccccc1)C(=O)N[C@@H](Cc1ccccc1)C(=O)N[C@H](/C=C/C(=O)N1CCc2ccc([N+](=O)[O-])cc21)CCC(N)=O
2. CC(C)C[C@H](NC(=O)OCc1ccccc1)C(=O)N[C@@H](Cc1ccccc1)C(=O)N[C@H](/C=C/C(=O)c1ccco1)CCC(N)=O
3. CCN(CC)c1ccc(C(=O)/C=C/[C@H](CCC(N)=O)NC(=O)[C@H](Cc2ccccc2)NC(=O)[C@H](CC(C)C)NC(=O)OCc2ccccc2)cc1
4. CC(C)C[C@H](NC(=O)OCc1ccccc1)C(=O)N[C@@H](Cc1ccccc1)C(=O)N[C@H](/C=C/C(=O)C(C)(C)C)CCC(N)=O

1: > 320 µM; 2: 19 µM; 3: 25 µM; 4: 5.6 µM
